Tested on: Tov112D
Test: Primary qHTS to identify gynecologic anti-cancer compounds using libraries of approved drugs and bioactive compounds (AID 1345084); note: nearly all actives have a fitted effect of over 55% in size; note: potency is the fitted concentration of half-maximal effect
Settings: Gynecologic cancer cell panel viability, ATPlite luminescence, 48 h; series mostly up to 57.5 µM
Results filed as inconclusive are left out. Calls of active or inactive are those of the source. Calls come from the whole dose curve; as a rule, active = well fitted cell-killing curve with a large enough effect; inconclusive = small, poorly fitted or top-dose-only effect, or effect the other way; inactive = flat fitted curve, though single readings scatter.
Experimental Endpoint: Potency

Some solved entries appear below for comparison.
- Compound: "Clc1ccc2nsnc2c1NC1=NCCN1"
  Experimental Endpoint: "Potency"
  Val: "inactive"
- Compound: "CC(COc1ccccc1)N(CCCl)Cc1ccccc1 (stereo unspecified)"
  Experimental Endpoint: "Potency"
  Val: "inactive"
- Compound: "O=C(Nc1ccc([N+](=O)[O-])cc1Cl)c1cc(Cl)ccc1O"
  Experimental Endpoint: "Potency"
  Val: "2 µM (active)"
- Compound: "CC#C[C@]1(O)CC[C@H]2[C@@H]3CCC4=CC(=O)CCC4=C3[C@@H](c3ccc(N(C)C)cc3)C[C@@]21C"
  Experimental Endpoint: "Potency"
  Val: "inactive"
- Compound: "Clc1ccccc1C(c1ccccc1)(c1ccccc1)n1ccnc1"
  Experimental Endpoint: "Potency"
  Val: "inactive"

The record that follows has no Potency shown yet.
Consider the compound shown here: Clc1ccc(C(c2ccccc2Cl)C(Cl)Cl)cc1 (stereo unspecified) What is its recorded Potency?
inactive
